# EC50 values compiled below
# target.entity: PPARγ (Homo sapiens)
# Construct: expressed in transfected cells; host or cells: CV-1 cells
# Sequence (P37231 238-503 limits assumed): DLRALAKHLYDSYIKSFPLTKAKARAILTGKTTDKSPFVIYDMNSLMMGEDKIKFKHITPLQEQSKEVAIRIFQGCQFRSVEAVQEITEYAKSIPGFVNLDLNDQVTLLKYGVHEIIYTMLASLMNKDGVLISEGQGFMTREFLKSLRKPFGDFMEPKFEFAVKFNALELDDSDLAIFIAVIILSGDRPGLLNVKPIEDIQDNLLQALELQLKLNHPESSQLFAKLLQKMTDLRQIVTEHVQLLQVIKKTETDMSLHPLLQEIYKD
# procedure.summary: PPAR-gamma EC50, functional cell (transactivation) assay
# Type: cell-based
measurement.kind: EC50

1. COc1ccccc1N1CCN(S(=O)(=O)c2ccc(OC(C)(C)C(=O)O)c(C)c2)CC1
1 to 100 µM
2. Cc1cc(S(=O)(=O)N2CCN(c3ccc(Cl)c(Cl)c3)CC2)ccc1OC(C)(C)C(=O)O
1 to 100 µM
3. Cc1cc(S(=O)(=O)N2CCN(c3ccc(C(F)(F)F)cc3[N+](=O)[O-])CC2)ccc1OC(C)(C)C(=O)O
1 to 100 µM
4. Cc1cc(S(=O)(=O)N2CCN(C(=O)c3ccco3)CC2)ccc1OC(C)(C)C(=O)O
> 100 µM
5. Cc1cc(S(=O)(=O)N2CCN(c3ccccc3)CC2)ccc1OC(C)(C)C(=O)O
1 to 100 µM
